# Test system: HeLa
# assayMethodText: Cytotoxicity against human HeLa cells after 24 to 48 hrs by MTT assay
# Type: functional, cell-based
property: IC50 (nM)
Write it as a number; the unit nM goes unstated.

State the recorded IC50 for this entry: CC(C)=CC[C@H]1C[C@@]2(CC=C(C)C)C(=O)[C@](C(=O)c3ccccc3)(C(=O)C3=C2O[C@H](C(C)(C)O)C3)C1(C)C [HYPERIBONE A]
176

Others:
Consider the compound "CC(C)=CCC1=C(O)[C@@]2(C(=O)c3ccccc3)C(=O)[C@](CC=C(C)C)(C[C@H](CC=C(C)C)C2(C)C)C1=O" and give its measured IC50.
3300

The reported numbers originate from ChEMBL document CHEMBL1155244.
